These measurements were taken from ChEMBL document CHEMBL5365527.

Tested on: HEK-293T
Test Description: Cytotoxicity against human HEK293T cells co-transfected with Gal4-fused human Nurr1 LBD and pFR-Luc/pRL-SV40 assessed as decrease in renilla luciferase activity at 100 uM incubated for 16 hrs by Dual-Glo luciferase assay relative to control
Measured Property: Activity

See these solved cases before continuing.
[[record]]
molecule = "NC(=O)CC1(NC(=O)c2cc3[nH]ccc3cc2Cl)CCCCC1"
measured_value = "Non-Toxic"

[[record]]
molecule = "CN(C)CCOc1ccc(Cl)cc1N"
measured_value = "Non-Toxic"

[[record]]
molecule = "NC1CCC(CC2CCC(N)CC2)CC1 (stereo not drawn)"
measured_value = "Non-Toxic"

[[record]]
molecule = "O=C(NCCC12CCCN1CCC2)c1cc2[nH]ccc2cc1Cl"
measured_value = "Non-Toxic"

[[record]]
molecule = "CC(C)N1CCC(NC(=O)c2cc3[nH]ccc3cc2Cl)CC1"
measured_value = "Non-Toxic"


Hi! Can you tell me Activity for each of these molecules?
1. NCc1cc(N)cc(C(F)(F)F)c1
2. CN1CCC(Nc2ccccc2N)CC1

**Result**
1: Non-Toxic; 2: Toxic

Quick one: give me Activity for each item below, same order please.
1. NCc1ccc2[nH]ncc2c1
2. CCCCN1CCC(CNC(=O)c2cc3[nH]ccc3cc2Cl)C1 (stereo not drawn)
3. CCN(CC)C1CCC(NC(=O)c2cc3[nH]ccc3cc2Cl)CC1 (stereo not drawn)
4. NCC1CCN(Cc2ccccc2)CC1
5. NCCC12CCCN1CCC2
6. Nc1ccccc1NCCCn1ccnc1
7. Nc1cc(CNC(=O)c2cc3[nH]ccc3cc2Cl)cc(C(F)(F)F)c1
8. CN(C)Cc1ccccc1CN

**Result**
1: Non-Toxic; 2: Non-Toxic; 3: Non-Toxic; 4: Non-Toxic; 5: Non-Toxic; 6: Non-Toxic; 7: Toxic; 8: Non-Toxic

Here are 3 molecules. What values of Activity were reported for them?
1. CN1CCC(CNC(=O)c2cc3[nH]ccc3cc2Cl)(c2ccccc2)CC1
2. CCCCN1CCC(CN)C1 (stereo not drawn)
3. O=C(NCCNC1CCCCC1)c1cc2[nH]ccc2cc1Cl

**Result**
1. Non-Toxic
2. Non-Toxic
3. Non-Toxic

---

Test Target: Nuclear receptor subfamily 4 group A member 2 (Homo sapiens, UniProt P43354)
Sequence (P43354 whole entry, the tested form may be a part): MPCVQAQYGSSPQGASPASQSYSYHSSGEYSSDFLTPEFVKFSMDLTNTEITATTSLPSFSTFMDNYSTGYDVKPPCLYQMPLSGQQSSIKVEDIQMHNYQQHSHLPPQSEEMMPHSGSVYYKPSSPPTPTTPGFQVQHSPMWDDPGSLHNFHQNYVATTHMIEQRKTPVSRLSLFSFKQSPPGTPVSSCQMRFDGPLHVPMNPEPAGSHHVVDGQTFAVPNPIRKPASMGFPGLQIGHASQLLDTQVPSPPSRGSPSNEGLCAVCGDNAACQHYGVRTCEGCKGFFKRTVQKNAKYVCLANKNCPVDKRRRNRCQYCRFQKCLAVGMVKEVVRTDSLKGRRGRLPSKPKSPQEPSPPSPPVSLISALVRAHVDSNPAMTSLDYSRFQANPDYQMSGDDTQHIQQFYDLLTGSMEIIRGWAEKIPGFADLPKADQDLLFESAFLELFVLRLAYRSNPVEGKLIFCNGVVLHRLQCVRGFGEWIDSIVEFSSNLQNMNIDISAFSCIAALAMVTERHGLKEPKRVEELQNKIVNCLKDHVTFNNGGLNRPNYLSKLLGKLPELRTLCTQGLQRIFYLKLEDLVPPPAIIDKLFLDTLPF
Test Description: Agonist activity at Gal4-fused human Nurr1 LBD transfected in human HEK293T cells co-transfected with pFR-Luc/pRL-SV40 assessed as activation of luciferase activity incubated for 16 hrs by Dual-Glo luciferase assay
So I've got a bunch of compounds here, and I need their EC50 values.
Answers are plain numbers, in µM.

Check out these entries, answers already filled in.
[[record]]
compound = "CN(C)CCOc1ccc(Cl)cc1NC(=O)c1cc2c(ccn2C)cc1Cl"
test_target = "Nuclear receptor subfamily 4 group A member 2 (Homo sapiens, UniProt P43354)"
measured_property = "EC50"
measured_value = 16

[[record]]
compound = "CCCCN1CCC(CNC(=O)c2cc3[nH]ccc3cc2Cl)C1 (centres undefined)"
test_target = "Nuclear receptor subfamily 4 group A member 2 (Homo sapiens, UniProt P43354)"
measured_property = "EC50"
measured_value = 28

[[record]]
compound = "O=C(NCCN1CCC2CCCCC2C1)c1cc2[nH]ccc2cc1Cl (centres undefined)"
test_target = "Nuclear receptor subfamily 4 group A member 2 (Homo sapiens, UniProt P43354)"
measured_property = "EC50"
measured_value = 12


For the next question, use this compound.
Observed EC50 on Nuclear receptor subfamily 4 group A member 2 (Homo sapiens, UniProt P43354), entry Clc1ccc2[nH]ccc2c1 , equals 40
